TARGET: Stb5 (UniProt P38699)
Sequence: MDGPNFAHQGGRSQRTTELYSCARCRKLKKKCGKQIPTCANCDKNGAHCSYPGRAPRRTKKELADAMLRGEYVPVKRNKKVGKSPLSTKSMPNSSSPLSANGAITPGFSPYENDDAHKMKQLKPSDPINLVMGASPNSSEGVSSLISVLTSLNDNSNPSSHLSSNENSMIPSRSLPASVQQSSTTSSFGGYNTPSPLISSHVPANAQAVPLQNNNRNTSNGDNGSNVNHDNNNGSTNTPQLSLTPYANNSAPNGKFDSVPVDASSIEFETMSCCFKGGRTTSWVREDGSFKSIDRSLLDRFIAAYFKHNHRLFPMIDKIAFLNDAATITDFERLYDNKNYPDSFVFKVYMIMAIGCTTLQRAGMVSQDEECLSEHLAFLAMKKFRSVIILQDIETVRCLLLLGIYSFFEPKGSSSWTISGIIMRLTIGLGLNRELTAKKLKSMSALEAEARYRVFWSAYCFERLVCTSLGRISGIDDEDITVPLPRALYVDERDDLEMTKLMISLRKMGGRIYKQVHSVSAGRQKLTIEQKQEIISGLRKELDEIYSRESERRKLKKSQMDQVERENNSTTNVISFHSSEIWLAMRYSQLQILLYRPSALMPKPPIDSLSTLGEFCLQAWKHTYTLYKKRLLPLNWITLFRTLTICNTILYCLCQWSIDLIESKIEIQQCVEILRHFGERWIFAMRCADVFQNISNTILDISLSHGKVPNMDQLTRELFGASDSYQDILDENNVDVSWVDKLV
ASSAY_EXPLANATION: PBM E-score (8-mer binding enrichment) (E-score (-0.5 to 0.5)); higher = stronger / more preferred TF binding
SETTINGS: protein concentration: 200 nM; construct: GST-full length
The full ranking holds about 33,000 sequences; the median of “E-score (-0.5 to 0.5)” is about -0.054, and the highest 2% start at about 0.35. For the sample, the highest values were picked, then their nearest neighbours and some sequences at random.
Tag: t if measured PBM E-score is not below -0.01, f if it is.

Solved cases (3 shown):
>>> class_assignment("ATCGCCTC")
"f"
>>> class_assignment("AGACGCCA")
"f"
>>> class_assignment("ATAGCCGC")
"t"

input: Please tell me: is the sequence `AGTGTTAC` at or over -0.01 in terms of PBM E-score?
output: f

input: What do we get for `ACTGTTAC` ?
output: f

input: Cool, now `ATAGCCGG`
output: t

input: Try this sequence next: `AATAGAAT`
output: f

input: Entry `CAACCCCC` please
output: t

input: Same for `GAGCCGAC`
output: t

input: Also check `AGATTTTA`
output: t
